All figures here come from ChEMBL document CHEMBL1154682.

Assay explanation: Volume of distribution at steady state in Sprague-Dawley rat at 1 mg/kg, iv
Type: ADME, organism-based
Parameters: dose 1 mg/kg, route intravenous
Condition parameters: in vivo, read-out: Vdss
Readout label: Vd (L/kg)

1) O=C1Nc2ccc(-c3ccn[nH]3)cc2[C@](CNC(=O)c2ccc(F)cc2)(C(F)(F)F)O1 | 0.7

---

Measured on: Very long chain fatty acid elongase 6 (Mus musculus, UniProt Q920L5)
Sequence (Q920L5 whole entry): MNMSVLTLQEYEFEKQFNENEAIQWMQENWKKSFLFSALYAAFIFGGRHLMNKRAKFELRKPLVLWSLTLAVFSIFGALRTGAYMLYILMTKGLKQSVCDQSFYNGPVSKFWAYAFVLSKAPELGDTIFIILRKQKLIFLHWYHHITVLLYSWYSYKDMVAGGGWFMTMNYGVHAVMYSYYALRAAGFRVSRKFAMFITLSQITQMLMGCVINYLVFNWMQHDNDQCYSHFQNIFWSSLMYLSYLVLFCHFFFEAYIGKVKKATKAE
Assay explanation: Inhibition of mouse ELOVL6 expressed in Pichia pastoris using palmitoyl-CoA by long chain fatty acyl-CoA elongation assay
IC50 values for the molecules below.
Readout label: IC50 (nM)

1) O=C1Nc2ccc(-c3ccn[nH]3)cc2[C@](CNC(=O)c2ccc(F)cc2)(C(F)(F)F)O1 | 14
2) O=C1Nc2ccc(-n3cccn3)cc2C(CNC(=O)c2ccc(F)cc2)(C(F)(F)F)O1 (single isomer, unassigned; (+)) | 29
3) O=C1Nc2ccc(-c3cn[nH]c3)cc2C(CNC(=O)c2ccc(F)cc2)(C(F)(F)F)O1 (single isomer, unassigned; (+)) | 20
4) O=C(NCC1(C(F)(F)F)OC(=O)Nc2ccc(Cl)cc21)Nc1ccc(F)cc1 (single isomer, unassigned; (-)) | 31
